From various publications: IC50 for Fibroblast growth factor receptor 1 (Homo sapiens, UniProt P11362).

Reading of IC50 for `CC(C)(C)c1cc(NC(=O)Nc2ccc(Oc3ncnc4[nH]ncc34)cc2)on1` with Fibroblast growth factor receptor 1 (Homo sapiens, UniProt P11362): < 10 µM

Reading of IC50 for C[C@@H](Oc1ccc2[nH]nc(/C=C/c3ccc(CN4CCC(O)C4)nn3)c2c1)c1c(Cl)cncc1Cl (stereo partly drawn) with Fibroblast growth factor receptor 1 (Homo sapiens, UniProt P11362): ≤ 0.01 µM

Reading of IC50 for `Cn1cc(-c2ccc3c(c2)ncn3-c2cc(-c3ncccc3F)cc(NS(=O)(=O)C3CC3)n2)cn1` with Fibroblast growth factor receptor 1 (Homo sapiens, UniProt P11362): 0.005 µM

Reading of IC50 for `Cc1[nH]c(/C=C2\C(=O)Nc3cccc(-c4ccc(Br)cc4)c32)c(C)c1C(=O)N1CCN(C)CC1` with Fibroblast growth factor receptor 1 (Homo sapiens, UniProt P11362): 1.15 µM

Reading of IC50 for `C=CC(=O)Nc1cc(N2CCN(S(C)(=O)=O)CC2)ccc1Nc1ncc2cc(-c3c(Cl)c(OC)cc(OC)c3Cl)c3nccn3c2n1` with Fibroblast growth factor receptor 1 (Homo sapiens, UniProt P11362): < 0.05 µM

Reading of IC50 for `COc1ccc(-c2cccc3c2/C(=C/c2[nH]c(C)c(C(=O)N4C[C@@H](C)N[C@@H](C)C4)c2C)C(=O)N3)cc1` with Fibroblast growth factor receptor 1 (Homo sapiens, UniProt P11362): 0.19 µM

Reading of IC50 for `C=CC(=O)NCc1cc2c(cn1)CN(c1c(F)c(OC)cc(OC)c1F)C(=O)N2C(C)C` with Fibroblast growth factor receptor 1 (Homo sapiens, UniProt P11362): > 0.2 µM

Reading of IC50 for `COCCN1CCC(Nc2ccc3c(c2)/C(=C(\c2ccc(C)c(F)c2)c2nc(C)c[nH]2)C(=O)N3)CC1` with Fibroblast growth factor receptor 1 (Homo sapiens, UniProt P11362): < 0.05 µM

Reading of IC50 for CC(Oc1ccc2[nH]nc(/C=C/c3ccc(CNC4CCN(C)CC4)cc3)c2c1)c1c(Cl)cncc1Cl (stereo not drawn) with Fibroblast growth factor receptor 1 (Homo sapiens, UniProt P11362): ≤ 0.01 µM

Reading of IC50 for `COCCN1CCC(Nc2ccc3c(c2)/C(=C(\c2ccc(F)cc2)c2ncc[nH]2)C(=O)N3)CC1` with Fibroblast growth factor receptor 1 (Homo sapiens, UniProt P11362): 0.05 to 0.5 µM

Reading of IC50 for CC(Oc1ccc2[nH]nc(/C(F)=C/c3ccc(CNCCN4CCOCC4)nc3)c2c1)c1c(Cl)cncc1Cl (stereo not drawn) with Fibroblast growth factor receptor 1 (Homo sapiens, UniProt P11362): 0.05 to 1 µM

Reading of IC50 for `COc1cc(OC)c(F)c(-c2ncc3c(-c4cnn(C)c4)n[nH]c3n2)c1F` with Fibroblast growth factor receptor 1 (Homo sapiens, UniProt P11362): < 0.1 µM

Reading of IC50 for `C=CC(=O)N1C[C@@H](Nc2ncc3cc(-c4c(Cl)c(OC)cc(OC)c4Cl)ccc3n2)C[C@H]1CO` with Fibroblast growth factor receptor 1 (Homo sapiens, UniProt P11362): 0.0046 µM

Reading of IC50 for `COc1cc(Nc2ncnc(-n3c(NCc4cccc(Cl)c4)nc4ccccc43)n2)cc(OC)c1OC` with Fibroblast growth factor receptor 1 (Homo sapiens, UniProt P11362): < 0.772 µM

Reading of IC50 for `COc1cc2nccc(Oc3ccc(NC(=S)N4CCCC4)c(Cl)c3)c2cc1NC(C)=O` with Fibroblast growth factor receptor 1 (Homo sapiens, UniProt P11362): 0.2 to 1 µM
